Reference source for all entries: ChEMBL document CHEMBL5252669

- protocol_summary: Selectivity index, ratio of CC50 for human MRC5 cells to IC50 for Staphylococcus aureus
- Type: toxicity
- condition: read-out: Ratio CC50/IC50
measure_name: selectivity ratio
Lab note: record the figure alone, no unit after it.

Use these answered entries as a reference point.
CCOC(=O)[C@H]1O[C@@H](n2ccc(N)nc2=O)C=C[C@@H]1NC(=O)C[C@@H](N)CCN(C)C(=N)N.Cl.Cl.Cl 0.8
CN(CC[C@H](N)CC(=O)N[C@H]1C=C[C@H](n2ccc(N)nc2=O)O[C@@H]1C(=O)OCc1ccccc1)C(=N)N 0.5
CN(CC[C@H](N)CC(=O)N[C@H]1C=C[C@H](n2ccc(N)nc2=O)O[C@@H]1C(=O)OCCc1ccccc1)C(=N)N 1
CCCCOC(=O)[C@H]1O[C@@H](n2ccc(N)nc2=O)C=C[C@@H]1NC(=O)C[C@@H](N)CCN(C)C(=N)N 0.9

Request: Look up selectivity ratio: `CN(CC[C@H](N)CC(=O)N[C@H]1C=C[C@H](n2ccc(N)nc2=O)O[C@@H]1C(=O)O)C(=N)N.Cl`
Response: 0.2

Request: `C#CCCCOC(=O)[C@H]1O[C@@H](n2ccc(N)nc2=O)C=C[C@@H]1NC(=O)C[C@@H](N)CCN(C)C(=N)N` , same question.
Response: 2.6

Request: Item: `CN(CC[C@H](N)CC(=O)N[C@H]1C=C[C@H](n2ccc(N)nc2=O)O[C@@H]1C(N)=O)C(=N)N.Cl.Cl.Cl`
Response: 0.6

Request: Lookup `COC(=O)[C@H]1O[C@@H](n2ccc(N)nc2=O)C=C[C@@H]1NC(=O)C[C@@H](N)CCN(C)C(=N)N`
Response: 1.6

Request: Do the same for `CCCCCCOC(=O)[C@H]1O[C@@H](n2ccc(N)nc2=O)C=C[C@@H]1NC(=O)C[C@@H](N)CCN(C)C(=N)N` please
Response: 0.7

Request: What do we get for `CCCOC(=O)[C@H]1O[C@@H](n2ccc(N)nc2=O)C=C[C@@H]1NC(=O)C[C@@H](N)CCN(C)C(=N)N` ?
Response: 0.7

----------
- Test system: Pseudomonas aeruginosa
- protocol_summary: Antibacterial activity against MexAB-OprM deleted Pseudomonas aeruginosa incubated for 16 hrs by broth microdilution method
- Assay type: functional, organism-based
- condition: time 16 hrs
measure_name: MIC

Record excerpt, results attached:
CCOC(=O)[C@H]1O[C@@H](n2ccc(N)nc2=O)C=C[C@@H]1NC(=O)C[C@@H](N)CCN(C)C(=N)N.Cl.Cl.Cl > 128 µg/mL
CCCOC(=O)[C@H]1O[C@@H](n2ccc(N)nc2=O)C=C[C@@H]1NC(=O)C[C@@H](N)CCN(C)C(=N)N > 128 µg/mL

Now take the following compound into account.
Request: What MIC value was documented for this compound, `CCCCCCOC(=O)[C@H]1O[C@@H](n2ccc(N)nc2=O)C=C[C@@H]1NC(=O)C[C@@H](N)CCN(C)C(=N)N` ?
Response: > 128 µg/mL

----------
- protocol_summary: Selectivity index, ratio of CC50 for human MRC5 cells to IC50 for Klebsiella pneumoniae ATCC 29665
- Type: toxicity
- condition: read-out: Ratio CC50/IC50
Here, each record is paired with measured selectivity ratio data.
Answer with a number only.

Some molecules with known selectivity ratio results, for comparison:
CCCCOC(=O)[C@H]1O[C@@H](n2ccc(N)nc2=O)C=C[C@@H]1NC(=O)C[C@@H](N)CCN(C)C(=N)N 0.3
CN(CC[C@H](N)CC(=O)N[C@H]1C=C[C@H](n2ccc(N)nc2=O)O[C@@H]1C(N)=O)C(=N)N.Cl.Cl.Cl 1

Request: Item under review: `CCCCCCOC(=O)[C@H]1O[C@@H](n2ccc(N)nc2=O)C=C[C@@H]1NC(=O)C[C@@H](N)CCN(C)C(=N)N` . Reported selectivity ratio?
Response: 0.3

----------
- protocol_summary: Selectivity index, ratio of CC50 for human MRC5 cells to IC50 for MexAB-OprM deleted Pseudomonas aeruginosa
- Type: toxicity
- condition: read-out: Ratio CC50/IC50
measure_name: selectivity ratio
I'd appreciate a reply containing only the number, no unit.

Answered cases to consult:
CN(CC[C@H](N)CC(=O)N[C@H]1C=C[C@H](n2ccc(N)nc2=O)O[C@@H]1C(=O)OCc1ccccc1)C(=N)N 0.2
CCCOC(=O)[C@H]1O[C@@H](n2ccc(N)nc2=O)C=C[C@@H]1NC(=O)C[C@@H](N)CCN(C)C(=N)N 0.2
CCCCOC(=O)[C@H]1O[C@@H](n2ccc(N)nc2=O)C=C[C@@H]1NC(=O)C[C@@H](N)CCN(C)C(=N)N 0.3
CCCCCCOC(=O)[C@H]1O[C@@H](n2ccc(N)nc2=O)C=C[C@@H]1NC(=O)C[C@@H](N)CCN(C)C(=N)N 0.2
CN(CC[C@H](N)CC(=O)N[C@H]1C=C[C@H](n2ccc(N)nc2=O)O[C@@H]1C(N)=O)C(=N)N.Cl.Cl.Cl 0.5
COC(=O)[C@H]1O[C@@H](n2ccc(N)nc2=O)C=C[C@@H]1NC(=O)C[C@@H](N)CCN(C)C(=N)N 0.5

Turning now to a further record.
Request: Consider the compound shown here: `CCOC(=O)[C@H]1O[C@@H](n2ccc(N)nc2=O)C=C[C@@H]1NC(=O)C[C@@H](N)CCN(C)C(=N)N.Cl.Cl.Cl` What is its recorded selectivity ratio?
Response: 0.1

----------
- protocol_summary: Cytotoxicity against human MRC5 cells incubated for 24 hrs by MTS assay
- Type: toxicity, cell-based
CC50 at 24 h reference
Dear colleague, please send the value followed by its unit.

Request: # CC50 at 24 h lookup, item `CCCCCCOC(=O)[C@H]1O[C@@H](n2ccc(N)nc2=O)C=C[C@@H]1NC(=O)C[C@@H](N)CCN(C)C(=N)N`
Response: 18.4 mg/L

Request: Okay, and `CN(CC[C@H](N)CC(=O)N[C@H]1C=C[C@H](n2ccc(N)nc2=O)O[C@@H]1C(=O)OCCc1ccccc1)C(=N)N` ?
Response: 18.5 mg/L

Request: Follow-up item: `CCOC(=O)[C@H]1O[C@@H](n2ccc(N)nc2=O)C=C[C@@H]1NC(=O)C[C@@H](N)CCN(C)C(=N)N.Cl.Cl.Cl`
Response: 8.9 mg/L

Request: Follow-up entry: `CCCCOC(=O)[C@H]1O[C@@H](n2ccc(N)nc2=O)C=C[C@@H]1NC(=O)C[C@@H](N)CCN(C)C(=N)N`
Response: 21.2 mg/L

----------
- protocol_summary: Selectivity index, ratio of CC50 for human MRC5 cells to IC50 for methicillin resistant Staphylococcus aureus
- Type: toxicity
- condition: read-out: Ratio CC50/IC50
measure_name: selectivity ratio
Field format: numeric only.

Please review the following examples before continuing.
CN(CC[C@H](N)CC(=O)N[C@H]1C=C[C@H](n2ccc(N)nc2=O)O[C@@H]1C(=O)O)C(=N)N.Cl 0.2
CCCOC(=O)[C@H]1O[C@@H](n2ccc(N)nc2=O)C=C[C@@H]1NC(=O)C[C@@H](N)CCN(C)C(=N)N 0.6

Attention now shifts to the item below.
Request: For `COC(=O)[C@H]1O[C@@H](n2ccc(N)nc2=O)C=C[C@@H]1NC(=O)C[C@@H](N)CCN(C)C(=N)N` , what is its reported selectivity ratio?
Response: 1.7

----------
- protocol_summary: Selectivity index, ratio of CC50 for human MRC5 cells to IC50 for NorA deleted Staphylococcus aureus
- Format: toxicity
- condition: read-out: Ratio CC50/IC50
Classify as follows. Reported selectivity ratio greater than or equal to 0.6: MET. Reported selectivity ratio below: NOT MET.

Look over these answered cases.
CN(CC[C@H](N)CC(=O)N[C@H]1C=C[C@H](n2ccc(N)nc2=O)O[C@@H]1C(=O)OCCc1ccccc1)C(=N)N MET
CCCCCCOC(=O)[C@H]1O[C@@H](n2ccc(N)nc2=O)C=C[C@@H]1NC(=O)C[C@@H](N)CCN(C)C(=N)N MET
C#CCCCOC(=O)[C@H]1O[C@@H](n2ccc(N)nc2=O)C=C[C@@H]1NC(=O)C[C@@H](N)CCN(C)C(=N)N MET
COC(=O)[C@H]1O[C@@H](n2ccc(N)nc2=O)C=C[C@@H]1NC(=O)C[C@@H](N)CCN(C)C(=N)N MET
CN(CC[C@H](N)CC(=O)N[C@H]1C=C[C@H](n2ccc(N)nc2=O)O[C@@H]1C(=O)O)C(=N)N.Cl NOT MET

Request: Say whether `CCCOC(=O)[C@H]1O[C@@H](n2ccc(N)nc2=O)C=C[C@@H]1NC(=O)C[C@@H](N)CCN(C)C(=N)N` shows selectivity ratio of 0.6 or more.
Response: NOT MET

Request: Next record, please: `CCOC(=O)[C@H]1O[C@@H](n2ccc(N)nc2=O)C=C[C@@H]1NC(=O)C[C@@H](N)CCN(C)C(=N)N.Cl.Cl.Cl`
Response: NOT MET

Request: What do we get for `CN(CC[C@H](N)CC(=O)N[C@H]1C=C[C@H](n2ccc(N)nc2=O)O[C@@H]1C(=O)OCc1ccccc1)C(=N)N` ?
Response: NOT MET

Request: Cool, now `CN(CC[C@H](N)CC(=O)N[C@H]1C=C[C@H](n2ccc(N)nc2=O)O[C@@H]1C(N)=O)C(=N)N.Cl.Cl.Cl`
Response: NOT MET
